target: human TRPM8 (Homo sapiens, UniProt Q7Z2W7); construct: expressed in transfected cells; host or cells: Chinese hamster ovary (CHO) cells, T-REx tetracycline-inducible system, co-transfected with aequorin; experiment: Luminescence readout assay for measuring intracellular calcium, icilin activation; format: cell-based; details: CHO cells expressing human TRPM8, aequorin luminescence, 1 μM icilin activation; read-out: hTRPM8 IC50
Sequence (Q7Z2W7 whole entry): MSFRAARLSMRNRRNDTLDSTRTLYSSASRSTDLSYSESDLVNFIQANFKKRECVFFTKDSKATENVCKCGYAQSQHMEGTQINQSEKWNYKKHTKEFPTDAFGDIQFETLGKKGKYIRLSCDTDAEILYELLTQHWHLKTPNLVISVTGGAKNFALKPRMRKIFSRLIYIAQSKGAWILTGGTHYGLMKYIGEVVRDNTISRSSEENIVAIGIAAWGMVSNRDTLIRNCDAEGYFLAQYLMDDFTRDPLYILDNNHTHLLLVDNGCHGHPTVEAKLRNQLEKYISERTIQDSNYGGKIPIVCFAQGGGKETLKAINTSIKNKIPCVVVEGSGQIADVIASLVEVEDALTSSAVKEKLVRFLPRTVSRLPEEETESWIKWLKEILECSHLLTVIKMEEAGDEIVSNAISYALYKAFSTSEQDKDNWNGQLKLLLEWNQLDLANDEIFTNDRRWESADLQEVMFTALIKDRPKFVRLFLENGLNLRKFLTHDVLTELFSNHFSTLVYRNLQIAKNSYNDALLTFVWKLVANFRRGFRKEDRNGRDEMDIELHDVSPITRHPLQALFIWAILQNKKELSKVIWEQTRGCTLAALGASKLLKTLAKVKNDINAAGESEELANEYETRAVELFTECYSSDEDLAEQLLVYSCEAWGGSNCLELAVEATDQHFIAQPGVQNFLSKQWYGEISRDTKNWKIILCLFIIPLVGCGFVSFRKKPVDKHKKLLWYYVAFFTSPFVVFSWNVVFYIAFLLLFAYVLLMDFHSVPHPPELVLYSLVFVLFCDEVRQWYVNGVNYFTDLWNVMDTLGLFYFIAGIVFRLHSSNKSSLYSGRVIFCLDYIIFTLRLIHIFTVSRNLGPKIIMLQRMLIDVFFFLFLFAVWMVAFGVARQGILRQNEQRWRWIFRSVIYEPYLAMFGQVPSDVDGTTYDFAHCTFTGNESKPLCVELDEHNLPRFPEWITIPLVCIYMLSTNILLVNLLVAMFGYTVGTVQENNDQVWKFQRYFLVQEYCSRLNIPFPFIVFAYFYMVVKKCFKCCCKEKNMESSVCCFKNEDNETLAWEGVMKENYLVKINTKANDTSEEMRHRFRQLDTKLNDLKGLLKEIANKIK
Criterion: IC50 strictly under 0.03 µM. Met: Satisfied. Not met: Not satisfied.

> print(dat)
                                   molecule          label
1  Nc1ccc(C(=O)N[C@@H](c2ccc(C(F)(F)F)cc2)c2ncccc2C(F)(F)F)cn1 [Example 134]  Not satisfied
2  O=C(Cc1ccccn1)N[C@@H](c1ccc(OC(F)(F)F)c(F)c1)c1ncccc1F [Example 288]  Not satisfied
3  Cc1cc(C(=O)N[C@@H](c2ccc(C(F)(F)F)cc2)c2ncccc2C(F)(F)F)ccn1 [Example 39]      Satisfied
4  O=C1Cc2cc(C(=O)N[C@@H](c3ccc(OC(F)(F)F)c(F)c3)c3ncccc3F)ccc2N1 [Example 346]      Satisfied
5  Cc1cccnc1[C@@H](NC(=O)c1ccc(=O)[nH]c1)c1ccc(C(F)(F)F)cc1 [Example 82, 2,2,2-trifluoroacetate]      Satisfied
6  O=C(N[C@@H](c1ccc(OC(F)(F)F)c(F)c1)c1ncccc1F)c1ccc(=O)n(CCO)c1 [Example 297]      Satisfied
7  O=C(NC(c1ccc(C(F)(F)F)cc1)c1ncccc1F)c1ccccc1 (centres unmarked) [Example 193]  Not satisfied

###

target: human TRPM8 (Homo sapiens); construct: expressed in transfected cells; host or cells: Chinese hamster ovary (CHO) cells, T-REx tetracycline-inducible system, co-transfected with aequorin; assay: Luminescence readout assay for measuring intracellular calcium, icilin activation; type: cell-based; details: CHO cells expressing human TRPM8, aequorin luminescence, 1 μM icilin activation; read-out: hTRPM8 IC50
Measured Metric: IC50 (nM)

> print(dat)
                            molecule.smiles  measured.metric  result
1  C=CCc1cccnc1[C@@H](NC(=O)[C@@H](C)c1ccccc1)c1ccc(C(F)(F)F)cc1             IC50     226
2  O=C(N[C@@H](c1ccc(C(F)(F)F)cc1)c1ncccc1C(F)(F)F)c1ccc2cc[nH]c2n1             IC50      40
3  O=C(N[C@@H](c1ccc(C(F)(F)F)cc1)c1ncccc1C(F)(F)F)c1cncnc1O             IC50     312
4  O=C(O)c1cccc(C(=O)N[C@@H](c2ccc(C(F)(F)F)cc2)c2ncccc2C(F)(F)F)c1             IC50    39.8
5  O=C(N[C@@H](c1cnc2c(F)cccc2c1)c1ncccc1C(F)(F)F)c1ccc2cccnc2c1             IC50     187
6  O=C(N[C@@H](c1ccc(OC(F)(F)F)c(F)c1)c1ncccc1F)c1ccc(=O)n(CC2(O)CC2)c1             IC50    59.6
7  O=C(N[C@@H](c1ccc(C(F)(F)F)cc1)c1ncccc1C(F)(F)F)c1cccnn1             IC50     162
8  COc1cccc2cc([C@H](NC(=O)c3ccc4cccnc4c3)c3ncccc3C(F)(F)F)cnc12             IC50    1060
